Measured values drawn from patent US20230203041A1 for this set.

Task for the reader: assign each of the following compounds its reported pIC50.
- System: human PBMCs
- procedure text: CD3/CD28 stimulated IL-2 release NECA reversal assay in human PBMCs;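 note: dose-response as % inhibition where 100% equals no-NECA control wells with CD3/CD28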
- Format: cell-based
- test context: PBMC, CD3/CD28 antibody stimulated, 1 uM NECA, 24 hours, IL-2 in culture supernatant
Numbers only, as −log10 of the molar value.

Examples from the recorded data:
Cc1cc(-c2c(-c3cccc(C#N)c3)nn3ccc(C(=O)NC(C)(C)CO)nc23)cc(Cl)n1 [Example 6.22] : 8.60
Cc1cc(-c2c(-c3cccc(C#N)c3)nn3ccc(C(=N)N)nc23)cc(C)n1 [Example 97] : 7.42
Cc1cc(-c2c(-c3cccc(C#N)c3)nn3ccc(NC(=O)C(C)(C)O)nc23)cc(Cl)n1 [Example 94] : 7.57
Cc1cc(-c2c(-c3cccc(C#N)c3)nn3ccc(C(=O)NC[C@H](O)CO)nc23)cc(Cl)n1 [Example 6.13] : 7.49
Cc1cc(-c2c(-c3cccc(C#N)c3)nn3ccc(N[C@@H]4COC[C@@H]4O)nc23)cc(Cl)n1 [Example 2.16] : 8.15

Hi! Can you tell me pIC50 for each of these compounds?
1. Cn1cc(-c2c(-c3ccco3)nn3ccc(NCc4ccccc4)nc23)cn1 [Example 53]
2. Cc1cc(-c2c(-c3cccc(C#N)c3)nn3ccc(C(=O)NCC4(O)CC4)nc23)cc(Cl)n1 [Example 6.2]
3. Cc1cc(-c2c(-c3cccc(C#N)c3)nn3ccc(N)nc23)cc(C)n1 [Example 1.6]

*A*
1. 6.89
2. 8.10
3. 7.24

----------
Task for the reader: assign each of the following molecules its reported pKi.
- system: human Adenosine A1 receptor (Homo sapiens, UniProt P30542)
- Sequence (P30542 1-326): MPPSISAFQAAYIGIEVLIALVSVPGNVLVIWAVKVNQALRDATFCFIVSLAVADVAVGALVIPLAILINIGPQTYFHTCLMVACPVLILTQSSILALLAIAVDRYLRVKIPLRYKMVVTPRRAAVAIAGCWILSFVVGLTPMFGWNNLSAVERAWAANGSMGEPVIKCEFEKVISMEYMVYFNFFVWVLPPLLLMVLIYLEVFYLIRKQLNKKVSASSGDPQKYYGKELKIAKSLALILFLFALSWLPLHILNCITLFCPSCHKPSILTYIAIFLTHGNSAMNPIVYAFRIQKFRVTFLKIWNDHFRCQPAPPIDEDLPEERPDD
Counter-ions that a name gives are not always drawn.
Numbers only, as −log10 of the molar value.

Examples from the recorded data:
Cc1cc(-c2c(-c3cccc(C#N)c3)nn3ccc(C(=O)NCC(C)(C)O)nc23)c(F)c(C)n1 [Example 101.1] : 5.91
c1coc(-c2cc3nc(NCc4nccs4)ccn3n2)c1 [Example 74] : 6.19
Cc1cc(-c2c(-c3cccc(C#N)c3)nn3ccc(N)nc23)cc(C)[n+]1[O-] [Example 27] : 8.40
Cc1cc(-c2c(-c3cccc(C#N)c3)nn3ccc(C(=O)N[C@H]4CN(C)C[C@H]4O)nc23)cc(C)n1 [Example 92.34] : 6.37
Cc1cccnc1CNc1ccn2nc(-c3ccco3)c(C#N)c2n1 [Example 37] : 8.30
Cc1cc(-c2c(-c3cccc(C#N)c3)nn3ccc(O[C@@H]4CCNC4)nc23)cc(Cl)n1 [Example 18, formate] : 7.27
Cc1cc(-c2c(-c3cccc(C#N)c3)nn3ccc(C(=O)NCC4CCC(=O)NC4)nc23)cc(C)n1 (stereo not shown) [Example 92.19] : 6.75
CC(C)(C)OC(=O)N1CCO[C@H](CNc2ccn3nc(-c4ccco4)c(C#N)c3n2)C1 [Example 37.5] : 6.88

Hi! Can you tell me pKi for each of these molecules?
1. N#Cc1c(-c2ccco2)nn2ccc(NC[C@H]3CNCCO3)nc12 [Example 42.1, hydrochloride]
2. Cc1cc(-c2c(-c3cccc(C#N)c3)nn3ccc(C(=O)N[C@H]4C[C@](C)(O)C4)nc23)cc(C)n1 [Example 92.20]
3. Cc1cc(-c2c(-c3cccc(C#N)c3)nn3ccc(C(=O)NC4(C(N)=O)CCNCC4)nc23)cc(Cl)n1 (single isomer, unassigned) [Example 7.17]
4. Cc1cc(-c2c(-c3ccc(F)cc3)nn3ccc(N)nc23)cc(Cl)n1 [Example 88]
5. Cc1cc(-c2c(-c3cccc(C#N)c3)nn3ccc(NC(=O)NCC(C)(C)N)nc23)cc(Cl)n1 [Example 31.4, trifluoroacetate]
6. Cc1cc(-c2c(-c3cccc(C#N)c3)nn3ccc(NC4CN5CCC4CC5)nc23)cc(Cl)n1 (stereo not shown) [Example 2.17]
7. Cc1cccnc1CNc1ccn2nc(-c3ccco3)c(C(N)=O)c2n1 [Example 38]
8. CCn1nccc1-c1c(-c2cccc(C#N)c2)nn2ccc(N3CC4CCC(C3)N4C)nc12 [Example 33.3]

*A*
1. 6.17
2. 6.52
3. 6.55
4. 7.54
5. 6.95
6. 7.35
7. 6.80
8. 7.17
